- target: Cysteine protease (Leishmania donovani)
- Sequence (Q95WR6 whole entry): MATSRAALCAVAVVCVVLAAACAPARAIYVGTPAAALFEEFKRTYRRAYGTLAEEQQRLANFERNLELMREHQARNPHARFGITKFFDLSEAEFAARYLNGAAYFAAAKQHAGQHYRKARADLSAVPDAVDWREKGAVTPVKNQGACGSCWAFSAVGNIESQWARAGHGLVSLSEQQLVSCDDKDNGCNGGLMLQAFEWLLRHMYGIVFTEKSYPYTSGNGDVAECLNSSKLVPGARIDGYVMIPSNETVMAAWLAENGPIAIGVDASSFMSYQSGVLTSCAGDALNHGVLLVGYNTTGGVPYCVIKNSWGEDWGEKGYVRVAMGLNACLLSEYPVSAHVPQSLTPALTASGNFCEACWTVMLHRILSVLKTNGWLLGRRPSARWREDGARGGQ
Where a SMILES comes first, the peptide text is derived from it. The star is where a group is joined. Cbz = O=C(OCc1ccccc1)*; OBn = c1ccc(CO*)cc1
measured-metric: IC50 (µM)

molecule: O=C(CNC(=O)OCc1ccccc1)N[C@@H](Cc1ccccc1)C(=O)OCc1ccccc1 (Cbz-Gly-Phe-OBn)
unit-symbol: µM
IC50: 31.4

[P] O=C(N[C@@H](COCc1ccccc1)C(=O)ON1C(=O)CCC1=O)OCc1ccccc1
[Q] CC(=O)N[C@@H](CC(C)C)C(=O)N[C@@H](CC(C)C)C(=O)N[C@H](C=O)CCCNC(=N)N
Exercise: Field: lower IC50 | Options: P / Q Identify your selection by its label.
Key: Q

====

pIC50: −log10 of the molar value.
Please consider the recorded pIC50 for Falcipain 2 (Plasmodium falciparum, UniProt Q9N6S8) in what follows.
measured-metric: pIC50

// below: answered molecules
item-smiles: Cc1ccc(S(=O)(=O)N(C)C)cc1NS(=O)(=O)c1ccc(-c2ccon2)s1
measured-metric: pIC50
reported: 5.54
//
item-smiles: O=S(=O)(Cc1ccc(Cl)cc1)Cc1nc(-c2ccsc2)no1
measured-metric: pIC50
reported: 4.32

[1] O=C(Cn1nnc(-c2ccccc2)n1)NNC=NOCc1c(F)cccc1Cl
[2] Cn1c(O)c(/N=N/C(=O)CCCCC(=O)/N=N/c2c(O)n(C)c3ccccc23)c2ccccc21
[3] CCCS(=O)(=O)c1cscc1NC(=O)CSCCS(=O)(=O)c1ccc(Cl)cc1
Exercise: Write the entries in order, lowest recorded pIC50 first. Present the labels in the sequence the task asks for.
Key: 1, 2, 3
(1: 4.97, 2: 5.19, 3: 5.47)

====

- target: Cysteine protease falcipain-3 (Plasmodium falciparum, UniProt Q9NBA7)
- Sequence (Q9NBA7 whole entry): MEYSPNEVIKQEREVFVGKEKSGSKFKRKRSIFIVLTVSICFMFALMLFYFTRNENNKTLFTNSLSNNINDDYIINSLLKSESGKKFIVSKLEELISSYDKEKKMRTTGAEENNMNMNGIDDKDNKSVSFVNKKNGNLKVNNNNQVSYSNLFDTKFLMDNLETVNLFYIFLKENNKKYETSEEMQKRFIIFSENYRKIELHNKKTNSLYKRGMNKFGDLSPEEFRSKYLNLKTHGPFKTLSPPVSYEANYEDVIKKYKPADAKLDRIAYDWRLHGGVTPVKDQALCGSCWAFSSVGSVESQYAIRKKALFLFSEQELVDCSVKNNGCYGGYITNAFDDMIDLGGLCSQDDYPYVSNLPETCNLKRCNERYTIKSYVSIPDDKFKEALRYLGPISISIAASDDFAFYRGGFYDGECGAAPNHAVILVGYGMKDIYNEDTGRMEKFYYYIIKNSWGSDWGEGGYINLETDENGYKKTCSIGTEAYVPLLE
- experimental-details: Inhibition of falcipain3
measured-metric: IC50

// below: answered compounds
item-smiles: O=S(=O)(c1ccc(-c2ccc(S(=O)(=O)N3CCOCC3)s2)s1)N1CCOCC1
IC50: 37.7 µM
//
item-smiles: O=C(CSc1nnc(O)n1Cc1ccco1)c1ccc2c(c1)OCCO2
IC50: > 50 µM

Exercise: Form field: reported IC50 of `Cc1csc(Cn2nc(CC(=O)N/N=C/c3ccccc3)c3ccccc3c2=O)n1`
Key: > 50 µM

Exercise: Same question, `Cc1nc(C)nc(N(CCS(=O)(=O)c2ccccc2)CCS(=O)(=O)c2ccccc2)n1` this time
Key: > 50 µM

====

- System: Leishmania donovani
- experimental-details: Antileishmanial activity against Leishmania donovani promastigotes
- Format: functional, organism-based
- experimental-setup: Leishmania donovani; read-out: IC50
pIC50: −log10 of the molar value.
measured-metric: pIC50

// below: answered compounds
item-smiles: CCOC(=O)C1CCN(S(=O)(=O)c2ccc(CNC(=O)c3ccccc3)s2)CC1
target: Leishmania donovani
pIC50: 4.30
//
item-smiles: Cc1nc(NCCCn2ccnc2)cc(-c2cncc(-c3ccc(F)cc3)c2)n1
target: Leishmania donovani
pIC50: 4.39

[I] COc1ccc(-c2ccnc(SCC(=O)NCCSCc3ccco3)n2)cc1
[II] c1ccc(-c2nc(NCCCn3ccnc3)cc(-c3ccncc3)n2)cc1
[III] Brc1cncc(-c2cc(NCCCn3ccnc3)nc(-c3ccccc3)n2)c1
Exercise: Write the entries in order, lowest recorded pIC50 first. Present the labels in the sequence the task asks for.
Key: I, II, III
(I: 4.10, II: 4.30, III: 5.11)

====

- System: Leishmania donovani
- experimental-details: Antileishmanial activity against Leishmania donovani promastigotes
- Format: functional, organism-based
- experimental-setup: Leishmania donovani; read-out: IC50
measured-metric: IC50 (µM)

compound: CSc1cc(CSc2ccc(Cl)cc2)nc(-c2ccccn2)n1
target: Leishmania donovani
IC50 [µM]: 50

[a] O=C(CSCc1c(F)cccc1Cl)NCCSCc1ccco1
[b] O=S(=O)(NCCSCc1ccco1)c1cc(S(=O)(=O)c2ccccc2)cs1
[c] c1ccc(-c2nc(NCCCn3ccnc3)cc(-c3cccnc3)n2)cc1
[d] N=C(N)c1ccc(OCCCCCOc2ccc(C(=N)N)cc2)cc1 [PENTAMIDINE]
Exercise: Rank descending by IC50. Present the labels in the sequence the task asks for.
Key: a, b, c, d
(a: 107 µM, b: 54.1 µM, c: 12.6 µM, d: 2.5 µM)

====

- System: Leishmania donovani
- experimental-details: Antileishmanial activity against Leishmania donovani promastigotes
- Type: functional, organism-based
- experimental-setup: Leishmania donovani; read-out: IC50
measured-metric: IC50 (µM)

item-smiles: C[C@@H]1[C@H](O)[C@@H](C)/C=C/C=C/C=C/C=C/C=C/C=C/C=C/[C@H](O[C@@H]2O[C@H](C)[C@@H](O)[C@H](N)[C@@H]2O)C[C@@H]2O[C@](O)(C[C@@H](O)C[C@@H](O)[C@H](O)CC[C@@H](O)C[C@@H](O)CC(=O)O[C@H]1C)C[C@H](O)[C@H]2C(=O)O
unit-symbol: µM
IC50: 0.04
//
item-smiles: COC(=O)c1sccc1NC(=O)CSCc1ccc(Cl)cc1
unit-symbol: µM
IC50: 45
//
item-smiles: O=S(=O)(c1ccc2c(c1)C(=NO)c1cc(S(=O)(=O)N3CCOCC3)ccc1-2)N1CCOCC1
unit-symbol: µM
IC50: 52.7
